I'd appreciate it if you could supply z-score values for the items below.
Experiment: basal HepG2 mitochondrial membrane potential changes, profiling panel, cell-based, JC-1 fluorescence, 24 h, 100 nL compound (AID 1167); further: test concentration not given here
Conditions: higher = more signal
Give bare numbers.

compound	data_value
COC(=O)[C@]1(CO)N=C(c2ccc(OCCCO)cc2)O[C@@H]1c1ccccc1N=[N+]=[N-]	-0.177
CCOC(=O)[C@H](CC(C)C)NC(=O)CCC1CC(OC(=O)NCc2cccc3ccccc23)CC2(CCCC(COC(=O)NCCc3ccccc3OC)O2)O1 (some centres undefined)	0.602
CC(=O)OC[C@H]1O[C@H](CCON=C(C)CCN2CCc3nc(-c4ccccc4)c(-c4ccccc4)cc3C2)C=C[C@@H]1OC(C)=O	-0.273
CN(C)CCCNC(=O)[C@@H]1c2ccccc2C(=O)N(Cc2cc(F)cc(C(F)(F)F)c2)[C@H]1c1ccc(CO)cc1	1.3
COC(=O)[C@H](C)NC(=O)CCC1CC(OC(=O)NCCc2ccc(F)cc2)CC2(CCCC(COC(=O)NCC(c3ccccc3)c3ccccc3)O2)O1 (some centres undefined)	-0.727
CC(C)=C1C(=O)C(c2ccccc2)=C2CN3C(=O)N(CCc4ccccc4)C(=O)[C@]3(Cc3ccc(F)cc3)[C@H]21	1.07

Quick request: z-score for each listed item, please.
1. CC(CCC(=O)OC[C@H]1O[C@H](C#Cc2ccccc2)C=C[C@@H]1Oc1ccc(C)cc1)=NOC[C@@H](O)COCc1ccco1
2. CC(C)[C@@H](OCc1ccccc1)[C@H](C)C=NO[C@H](C)c1cn([C@H](CO)Cc2ccccc2)nn1
3. CO[C@@H]1COC(=O)CC=C[C@@H](C)[C@@H]2C=C[C@@H](O)[C@@H](COC(=O)CC=C[C@H]1C)O2
4. C[C@@H]1C=CCC(=O)OC[C@H](C)C(=O)N2CCC[C@H]2C(=O)OC1
5. C=CCOC(=O)[C@H]1[C@@H]2C(=O)O[C@@H](c3ccccc3)[C@@H](c3ccccc3)N2[C@@H](c2ccc(OCCOC(=O)[C@H]3C[C@H]4C(=O)N[C@@H](Cc5ccccc5)C(=O)N4[C@H]3c3ccc(O)cc3)cc2)[C@]12C(=O)Nc1ccccc12

1: -1.54; 2: -1.15; 3: 1.33; 4: -0.248; 5: -1.47

Quick request: z-score for each listed item, please.
1. CCN1C(=O)[C@H]2[C@H]3[C@H](O)C=CC(=O)[C@@H]3CC[C@H]2C1=O
2. O=C1O[C@@H](c2ccccc2)[C@@H](c2ccccc2)N2[C@@H](c3ccc(OCCO)cc3)[C@]3(C(=O)Nc4ccc(C#CCCO)cc43)[C@@H](C(=O)N3CCCCCCC3)[C@H]12
3. CCOC(=O)NN=C1C[C@@H](O)[C@@H](O)[C@@H]2[C@@H]3C(=O)N(C[C@@H]4CCCO4)C(=O)[C@@H]3CC[C@@H]12

1. 0.234
2. 0.523
3. 1.06

Value source: PubChem BioAssay
